Target: V600E full-length B-Raf (Homo sapiens, UniProt P15056, V600E)
Construct: 1 μM FSBA-MEK and 20 nM V600E full-length B-Raf; made in house; host or cells: Sf9 insect cells (baculovirus)
Sequence (P15056 whole entry V600E): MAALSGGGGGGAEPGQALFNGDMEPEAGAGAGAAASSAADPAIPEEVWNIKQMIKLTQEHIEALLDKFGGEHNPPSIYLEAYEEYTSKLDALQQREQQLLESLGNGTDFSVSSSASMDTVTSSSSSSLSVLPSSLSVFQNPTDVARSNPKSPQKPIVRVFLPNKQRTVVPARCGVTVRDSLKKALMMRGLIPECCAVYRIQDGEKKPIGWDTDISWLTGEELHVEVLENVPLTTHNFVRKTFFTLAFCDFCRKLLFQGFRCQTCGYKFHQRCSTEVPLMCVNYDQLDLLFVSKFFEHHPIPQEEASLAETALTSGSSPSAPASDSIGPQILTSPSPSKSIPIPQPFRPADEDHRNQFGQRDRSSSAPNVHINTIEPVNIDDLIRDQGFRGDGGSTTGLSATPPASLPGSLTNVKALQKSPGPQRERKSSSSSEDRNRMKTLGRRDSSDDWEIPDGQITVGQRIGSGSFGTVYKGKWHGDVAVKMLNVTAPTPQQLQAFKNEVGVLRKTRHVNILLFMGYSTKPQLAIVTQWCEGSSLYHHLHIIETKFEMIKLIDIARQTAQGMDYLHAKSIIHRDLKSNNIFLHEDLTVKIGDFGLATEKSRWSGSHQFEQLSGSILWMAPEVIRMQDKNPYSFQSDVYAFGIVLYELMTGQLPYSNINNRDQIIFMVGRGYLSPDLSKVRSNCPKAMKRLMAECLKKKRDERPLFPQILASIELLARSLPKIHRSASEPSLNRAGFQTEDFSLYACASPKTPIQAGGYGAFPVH
Experiment: B-Raf IC50 assay (incorporation of 33P phosphate into FSBA-modified MEK)
Assay type: biochemical
Conditions: Example A assay, 4 μM ATP, 20 nM enzyme, 60-minute incubation; read-out: BRAF V600E IC50
Text: Determining the activity of Raf in the sample is possible by a number of direct and indirect detection methods (US 2004/0082014). Activity of human recombinant B-Raf protein may be assessed in vitro by assay of the incorporation of radio labeled phosphate to recombinant MAP kinase (MEK), a known physiologic substrate of B-Raf, according to US 2004/0127496 and WO 03/022840. […]
Recorded IC50 for the following compounds
Supply the numeric figure in µM, leaving out any unit text.

Example entries and their recorded answers appear below.
CCCS(=O)(=O)Nc1ccc(F)c(NC(=O)Nc2ncnc3sc(C)c(C)c23)c1F; 0.0282
CCCS(=O)(=O)Nc1ccc(Cl)c(NC(=O)Nc2ncnc3oc(C)c(C)c23)c1F; 0.0908
CCCS(=O)(=O)Nc1ccc(F)c(NC(=O)Nc2ncnc3[nH]nnc23)c1F; 1.96

With those in mind, consider the next compound.
# IC50 of CCCS(=O)(=O)Nc1ccc(F)c(NC(=O)N(C)c2ncnc3[nH]ccc23)c1F = 0.057

----------
Target: V600E full-length B-Raf (Homo sapiens, UniProt P15056, V600E)
Construct: 1 μM FSBA-MEK and 20 nM V600E full-length B-Raf; made in house; host or cells: Sf9 insect cells (baculovirus)
Assay: B-Raf IC50 assay (incorporation of 33P phosphate into FSBA-modified MEK)
Format: biochemical
Settings: Example A assay, 4 μM ATP, 20 nM enzyme, 60-minute incubation; read-out: BRAF V600E IC50
test_readout: IC50 (nM)
Supply the numeric figure in nM, leaving out any unit text.

Example entries and their recorded answers appear below.
CCCS(=O)(=O)Nc1ccc(F)c(NC(=O)N(C)c2ncnc3[nH]cnc23)c1F [Example 1]; 23.9
CCCS(=O)(=O)Nc1ccc(F)c(NC(=O)Nc2ncnc3[nH]nc(OC)c23)c1OC [Example 8]; 192
CCCS(=O)(=O)Nc1ccc(F)c(NC(=O)Nc2ncnc3[nH]nc(OC)c23)c1Cl [Example 2]; 1.3
CCCS(=O)(=O)Nc1ccc(F)c(NC(=O)Nc2ncnc3[nH]nc(OCC)c23)c1F [Example 9]; 0.9
CCCS(=O)(=O)Nc1ccc(F)c(NC(=O)Nc2ncnc3[nH]nc(OCCCO)c23)c1F [Example 15]; 428

# IC50 of CCS(=O)(=O)Nc1ccc(F)c(NC(=O)Nc2ncnc3[nH]nc(OC)c23)c1F [Example 3] = 3.4

# IC50 of CCCS(=O)(=O)Nc1ccc(F)c(NC(=O)Nc2ncnc3sccc23)c1F [Example 17] = 97.9

# IC50 of CCCS(=O)(=O)Nc1ccc(F)c(NC(=O)Nc2ncnc3[nH]c(=S)[nH]c23)c1F [Example 23] = 29.2

----------
Target: V600E full-length B-Raf (Homo sapiens, UniProt P15056, V600E)
Construct: 1 μM FSBA-MEK and 20 nM V600E full-length B-Raf; made in house; host or cells: Sf9 insect cells (baculovirus)
Experiment: B-Raf IC50 assay (incorporation of 33P phosphate into FSBA-modified MEK)
Type: biochemical
Details: Example A assay, 4 μM ATP, 20 nM enzyme, 60-minute incubation; read-out: BRAF V600E IC50
Entry class follows IC50: bottom (below 4 nM), middle (4 nM to below 20 nM), top (20 nM or more)

[in] Just checking, what class would you give CCCS(=O)(=O)Nc1ccc(F)c(NC(=O)Nc2ncnc3[nH]nc(OC)c23)c1F [Example 10] here?
[out] bottom

[in] Just checking, what class would you give CCCS(=O)(=O)Nc1ccc(Cl)c(NC(=O)Nc2ncnc3[nH]nc(OC)c23)c1F [Example 16] here?
[out] bottom

[in] Just checking, what class would you give CCS(=O)(=O)Nc1ccc(Cl)c(NC(=O)Nc2ncnc3[nH]nc(OC)c23)c1F [Example 4] here?
[out] bottom

[in] Just checking, what class would you give CCCS(=O)(=O)Nc1ccc(F)c(NC(=O)Nc2ncnc3[nH]nc(I)c23)c1F [Example 7] here?
[out] bottom

[in] Just checking, what class would you give CCCS(=O)(=O)Nc1ccc(F)c(NC(=O)Nc2ncnc3[nH]cnc23)c1F [Example 13] here?
[out] middle

[in] Just checking, what class would you give CCCS(=O)(=O)Nc1ccc(F)c(NC(=O)Nc2ncnc3[nH]ccc23)c1F [Example 12] here?
[out] top

[in] Just checking, what class would you give CCCS(=O)(=O)Nc1ccc(F)c(NC(=O)Nc2ncnc3oc(C)c(C)c23)c1F [Example 18] here?
[out] top

[in] Just checking, what class would you give CCCS(=O)(=O)Nc1ccc(F)c(NC(=O)Nc2ncnc3sc4c(c23)CCC4)c1F [Example 19] here?
[out] top

[in] Just checking, what class would you give CCCS(=O)(=O)Nc1ccc(Cl)c(NC(=O)Nc2ncnc3sccc23)c1F [Example 22] here?
[out] middle
